Provenance of the data: patent EP4786466A1

tested on: MCF7 breast cancer cell lines; assay: Cell viability analysis, WST-8 assay, MCF7; details: Homo sapiens, MCF7, 72 h, read-out: Cell viability (%) WST-8, MCF7 (1 µM), compound 1 µM, 72 hours
outcome-measure: viability at 1 µM (%)
Field format: number, assumed %, no unit text.

CCCc1ccc(S(=O)(=O)N2CC3CC2CN3c2nc(Nc3cc(C4CC4)[nH]n3)c3ccccc3n2)cc1 (centres unmarked) [compound 15x]; 122
Cc1cc(Nc2nc(N3CC4CC3CN4C(=O)C(C)C)nc3ccccc23)n[nH]1 (centres unmarked) [compound 27c]; 103
c1ccc2c(Nc3cc(C4CC4)[nH]n3)nc(N3CC4CC3CN4)nc2c1 (centres unmarked); 21.8
c1ccc2c(Nc3cc(C4CC4)[nH]n3)nc(N3CCC4(CC3)OCCO4)nc2c1; 13.2
c1ccc2c(Nc3cc(C4CC4)[nH]n3)nc(Nc3cccc4[nH]ccc34)nc2c1; 30.1

Query viability at 1 µM on MCF7 breast cancer cell lines for O=S(=O)(c1cccc2cccnc12)N1CC2CC1CN2c1nc(Nc2cc(C3CC3)[nH]n2)c2ccccc2n1 (centres unmarked) [compound 15z] 110

Try the molecule CC(C)(C)OC(=O)N1CC2CCC1CN2c1nc(Nc2cc(C3CC3)[nH]n2)c2ccccc2n1 (centres unmarked) 41.2

Try the molecule CC(C)(C)OC(=O)N1CC2C(C1)C2Nc1nc(Nc2cc(C3CC3)[nH]n2)c2ccccc2n1 (centres unmarked) 56.4
